Provenance of the data: the supplement of paper PMC10126150

Tested on: ATP;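 note: ATP exposure 15 min at 22 °C before imaging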
Assay: switch fluorescence ratio, 500 uM ATP over buffer (Cy3 cluster intensity, sum of 5 cycles each) (fold (ratio)); higher = stronger signal-on switching upon ATP binding; sequences stand for … in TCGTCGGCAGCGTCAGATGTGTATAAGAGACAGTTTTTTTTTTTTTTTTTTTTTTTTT…TC
Details: aptamer strand: ATP DNA aptamer (quencher-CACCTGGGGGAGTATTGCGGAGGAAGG + anchor), 100 nM annealed; ATP concentration: 500 uM
assay-metric: switch fluorescence ratio
When you answer, write just the number.

Worked set:
{"columns": ["item-sequence", "switch fluorescence ratio"],
 "data": [
  ["AGGAAGTCTG", 1.03],
  ["AGGTTTGTTA", 0.987],
  ["TTTTGGAGAG", 1.01],
  ["TTTTTGAAGA", 0.986],
  ["GCAACTTATT", 0.983],
  ["TGAATTAAGT", 1.03]
]}

Lookup: Given TTAGTTGATA , state its recorded switch fluorescence ratio.
Found: 1.01

Lookup: Can you share its switch fluorescence ratio? I mean this sequence: ATATCTTTTG
Found: 0.99

Lookup: I'd like to know its switch fluorescence ratio. The sequence in question is CCGGTTGTGA
Found: 1.18

Lookup: Reported switch fluorescence ratio for CAAGATGGGA : what is it?
Found: 0.963

Lookup: Any idea what switch fluorescence ratio was measured for CTGTATTCAC ?
Found: 1.04

Lookup: Item under review: TTCAGGATAC . Reported switch fluorescence ratio?
Found: 1.19

====

Entries and their switch fluorescence ratio values follow.
Test system: ATP;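 note: ATP exposure 15 min at 22 °C before imaging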
Experiment: switch fluorescence ratio, 500 uM ATP over buffer (Cy3 cluster intensity, sum of 5 cycles each) (fold (ratio)); higher = stronger signal-on switching upon ATP binding; sequences stand for … in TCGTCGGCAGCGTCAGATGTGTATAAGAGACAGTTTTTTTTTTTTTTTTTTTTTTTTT…TC
Conditions: aptamer strand: ATP DNA aptamer (quencher-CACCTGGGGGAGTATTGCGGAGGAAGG + anchor), 100 nM annealed; ATP concentration: 500 uM
Just the number, please, no unit attached.

Record excerpt, results attached:
{"columns": ["item-sequence", "switch fluorescence ratio"],
 "data": [
  ["GGTATGATGG", 0.991],
  ["GGGTACGGAA", 1.11],
  ["GCTCGAATTA", 1.02]
]}

Please find the next sequence below.
Lookup: # switch fluorescence ratio lookup, item CTCTCGGATG
Found: 1.01

====

Listed here: items and their measured switch fluorescence ratio.
Test system: ATP;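 note: ATP exposure 15 min at 22 °C before imaging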
Assay: switch fluorescence ratio, 500 uM ATP over buffer (Cy3 cluster intensity, sum of 5 cycles each) (fold (ratio)); higher = stronger signal-on switching upon ATP binding; sequences stand for … in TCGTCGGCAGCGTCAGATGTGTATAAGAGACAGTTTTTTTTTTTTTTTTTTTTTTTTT…TC
Conditions: aptamer strand: ATP DNA aptamer (quencher-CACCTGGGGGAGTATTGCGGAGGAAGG + anchor), 100 nM annealed; ATP concentration: 500 uM
Please reply with the value in numeric form only.

Examples with their reported switch fluorescence ratio follow.
{"columns": ["item-sequence", "test-value"],
 "data": [
  ["GACGACAGTC", 1.03],
  ["CACGGCTATG", 1.06],
  ["TTAATAACGG", 1.04]
]}

Lookup: Entry TTTTATTGGA , system ATP: what switch fluorescence ratio was measured?;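 note: ATP exposure 15 min at 22 °C before imaging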
Found: 1

Lookup: State its switch fluorescence ratio on ATP: ATGATGATGA
Found: 1.03

Lookup: API: value(readout= switch fluorescence ratio, system= ATP, query= CTGGTTTGAG );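 note: ATP exposure 15 min at 22 °C before imaging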
Found: 0.97

Lookup: API: value(readout= switch fluorescence ratio, system= ATP, query= TTTGGTCCGG );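 note: ATP exposure 15 min at 22 °C before imaging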
Found: 1.01

Lookup: Provide the documented switch fluorescence ratio with ATP as the system for GTAGGGTAAG
Found: 0.988

Lookup: // map TTATTTGGAT to recorded switch fluorescence ratio (system: ATP);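 note: ATP exposure 15 min at 22 °C before imaging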
Found: 0.99

Lookup: # query: switch fluorescence ratio | item AGCGTTTCGC | system: ATP;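 note: ATP exposure 15 min at 22 °C before imaging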
Found: 0.996

Lookup: Requested read-out switch fluorescence ratio, target or system ATP, entry TTTGCATTCT;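 note: ATP exposure 15 min at 22 °C before imaging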
Found: 1

====

System: ATP;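 note: ATP exposure 15 min at 22 °C before imaging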
Test: switch fluorescence ratio, 500 uM ATP over buffer (Cy3 cluster intensity, sum of 5 cycles each) (fold (ratio)); higher = stronger signal-on switching upon ATP binding; sequences stand for … in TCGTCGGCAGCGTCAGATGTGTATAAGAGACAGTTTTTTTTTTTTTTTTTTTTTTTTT…TC
Conditions: aptamer strand: ATP DNA aptamer (quencher-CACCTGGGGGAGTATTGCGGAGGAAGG + anchor), 100 nM annealed; ATP concentration: 500 uM
Record fulfilled whenever switch fluorescence ratio is at 1 or higher; record not fulfilled when lower.

Worked set:
{"columns": ["item-sequence", "class-name"],
 "data": [
  ["ACACTTGTTG", "not fulfilled"],
  ["GGGCATGGAA", "not fulfilled"],
  ["TATATTACTG", "fulfilled"],
  ["TTAAACTTAT", "fulfilled"]
]}

Lookup: Reported switch fluorescence ratio reaches at least 1 for TAAGCATGGA ?
Found: fulfilled

Lookup: I'd appreciate it if you could say whether CGGTGAATAC has switch fluorescence ratio at least equal to 1.
Found: fulfilled

Lookup: API: above_or_equal(metric=switch fluorescence ratio, cutoff=1) for item TGGGGAAAGT
Found: fulfilled

Lookup: Determine whether this sequence has switch fluorescence ratio no lower than 1: CCTGGCGATG
Found: fulfilled

Lookup: hey, is switch fluorescence ratio for this one >= 1? CACGCGGGGG
Found: fulfilled

Lookup: Determine whether this sequence has switch fluorescence ratio no lower than 1: GGCTTGAACT
Found: fulfilled

====

Listed here are sequences together with their documented switch fluorescence ratio.
Tested on: ATP;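 note: ATP exposure 15 min at 22 °C before imaging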
Assay: switch fluorescence ratio, 500 uM ATP over buffer (Cy3 cluster intensity, sum of 5 cycles each) (fold (ratio)); higher = stronger signal-on switching upon ATP binding; sequences stand for … in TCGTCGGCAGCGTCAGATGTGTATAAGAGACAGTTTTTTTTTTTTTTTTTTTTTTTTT…TC
Settings: aptamer strand: ATP DNA aptamer (quencher-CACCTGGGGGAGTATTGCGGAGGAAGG + anchor), 100 nM annealed; ATP concentration: 500 uM
Note: the reply should be a number with no unit written.

{"columns": ["item-sequence", "switch fluorescence ratio"],
 "data": [
  ["GGATTCGTAA", 0.998],
  ["GGCGGACGGA", 1.07],
  ["GAAGGGTTTG", 0.997],
  ["AATTTGAAAG", 1.02]
]}

Lookup: Would you kindly share the measured switch fluorescence ratio for GGGGGGTTTA ?
Found: 1.01

Lookup: Need switch fluorescence ratio, item TTAGCTATCT
Found: 1.04

Lookup: # lookup: switch fluorescence ratio of CGGGGGCATG
Found: 1.01

Lookup: Any idea what switch fluorescence ratio was measured for GCGCTAGGGC ?
Found: 1

Lookup: # lookup: switch fluorescence ratio of GCGACAAGAG
Found: 1.03

Lookup: # get_value(readout='switch fluorescence ratio', item= ACAGGATTGG )
Found: 1.01

Lookup: Any idea what its switch fluorescence ratio is? The sequence is CACGGCAGCT
Found: 1.09

====

Test system: ATP;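 note: ATP exposure 15 min at 22 °C before imaging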
Experiment: switch fluorescence ratio, 500 uM ATP over buffer (Cy3 cluster intensity, sum of 5 cycles each) (fold (ratio)); higher = stronger signal-on switching upon ATP binding; sequences stand for … in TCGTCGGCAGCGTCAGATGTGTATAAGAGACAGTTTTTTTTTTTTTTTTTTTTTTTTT…TC
Settings: aptamer strand: ATP DNA aptamer (quencher-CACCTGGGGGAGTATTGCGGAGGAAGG + anchor), 100 nM annealed; ATP concentration: 500 uM
assay-metric: switch fluorescence ratio
Lab note: jot down the number only; don't add units.

// worked examples, switch fluorescence ratio included
{"columns": ["item-sequence", "switch fluorescence ratio"],
 "data": [
  ["GCATATAAAC", 1.2],
  ["TAACTGGCGT", 0.991],
  ["TTTGGGCTGT", 1.02]
]}

Lookup: Which switch fluorescence ratio value is on record for AAGTTATTTT ?
Found: 1.01

Lookup: If you can, please state the reported switch fluorescence ratio value of GACTGTAAGC .
Found: 1.06

Lookup: Param item = GGAACCTCTG ; retrieve measured switch fluorescence ratio.
Found: 1.01

Lookup: Bench note: what switch fluorescence ratio did ATGGACTCCT show?
Found: 1.04

Lookup: # lookup: switch fluorescence ratio of GGTGTGGGGT
Found: 0.986

====

Tested on: ATP;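 note: ATP exposure 15 min at 22 °C before imaging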
Assay: switch fluorescence ratio, 500 uM ATP over buffer (Cy3 cluster intensity, sum of 5 cycles each) (fold (ratio)); higher = stronger signal-on switching upon ATP binding; sequences stand for … in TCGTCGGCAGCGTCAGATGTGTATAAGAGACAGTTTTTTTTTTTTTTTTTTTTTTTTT…TC
Details: aptamer strand: ATP DNA aptamer (quencher-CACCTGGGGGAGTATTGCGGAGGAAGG + anchor), 100 nM annealed; ATP concentration: 500 uM
Parameter switch fluorescence ratio: see the listing below.
Reply: number alone, nothing else.

Take a look at these entries with their results.
{"columns": ["item-sequence", "system", "switch fluorescence ratio"],
 "data": [
  ["ATAAGACTGT", "ATP", 1.03],
  ["ATGACATGGG", "ATP", 1.04],
  ["GGGAGGGGTA", "ATP", 1],
  ["TTTATATGGC", "ATP", 1.03],
  ["TCTGGAGCCG", "ATP", 1.04]
]}

Lookup: Report switch fluorescence ratio for GGGGTCTTGG please.
Found: 1.03

Lookup: Consider the sequence shown here: TTGGTAAAAG What is its recorded switch fluorescence ratio?
Found: 1.02

Lookup: Looking for the measured switch fluorescence ratio of TTAATTCGCT , can you help?
Found: 1.04

Lookup: I would be grateful if you could share the reported switch fluorescence ratio for CCGTTGGATT .
Found: 0.983

Lookup: Give its switch fluorescence ratio value. Item: TCGATCTTGG
Found: 0.988
